Measured EC50 accompanies every entry in the list below.
# tested_system: T1, Tim3-ECD-His-Biotin (human, UniProt Q8TDQ0 22-202, biotinylated with BirA Ligase, site not stated)
# T1 construct: also called human Tim3 (ELISA); Biochem Human
# experiment: ELISA on human Tim3 (values in relation to the samples max value)
Number in µg/mL, nothing else.

Below, 3 binders whose answers are already recorded.
binder	value
Tim3_0016MutNQ (antibody, V domains shown) VH: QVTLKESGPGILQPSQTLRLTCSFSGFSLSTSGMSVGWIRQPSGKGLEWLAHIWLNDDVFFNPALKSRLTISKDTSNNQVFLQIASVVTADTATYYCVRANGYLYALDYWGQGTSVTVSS VL: QIVLTQSPAIMSASPGQKVTITCSASSSVQYTQWYQQKLGSSPKLWIYDAFKLAPGVPARFSGSGTGTSYSLTISSMEAEDAASYFCHQWSSYPWTFGGGTKLEIK	0.0076
Tim3_0018MutNQ (antibody, V domains shown) VH: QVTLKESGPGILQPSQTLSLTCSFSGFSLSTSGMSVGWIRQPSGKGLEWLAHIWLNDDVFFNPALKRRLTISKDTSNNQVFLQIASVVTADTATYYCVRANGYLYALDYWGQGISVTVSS VL: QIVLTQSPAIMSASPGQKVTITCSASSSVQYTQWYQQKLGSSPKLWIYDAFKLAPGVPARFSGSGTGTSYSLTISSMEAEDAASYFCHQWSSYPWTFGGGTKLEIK	0.012
Tim3_0016MutNS (antibody, V domains shown) VH: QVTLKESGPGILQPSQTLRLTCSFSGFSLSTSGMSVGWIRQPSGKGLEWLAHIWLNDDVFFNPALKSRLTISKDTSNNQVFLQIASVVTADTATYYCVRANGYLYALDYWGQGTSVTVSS VL: QIVLTQSPAIMSASPGQKVTITCSASSSVSYTQWYQQKLGSSPKLWIYDAFKLAPGVPARFSGSGTGTSYSLTISSMEAEDAASYFCHQWSSYPWTFGGGTKLEIK	0.0085

// below: EC50 requested for another binder
[Q] Output EC50 of Tim3_0016 variant (0018) (antibody, V domains shown, Mouse monoclonal antibody; also called Tim3_0018; Tim3 0018) VH: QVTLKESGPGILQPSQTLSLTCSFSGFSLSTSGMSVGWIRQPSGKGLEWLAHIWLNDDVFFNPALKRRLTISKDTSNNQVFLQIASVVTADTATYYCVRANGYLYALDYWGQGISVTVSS VL: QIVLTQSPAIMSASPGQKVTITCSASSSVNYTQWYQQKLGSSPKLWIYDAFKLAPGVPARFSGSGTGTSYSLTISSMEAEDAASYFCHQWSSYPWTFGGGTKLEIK
[A] 0.0151

Numbers sourced from patent US20190322748A1.
